system: Fusarium oxysporum; experiment: Antimicrobial activity Fusarium oxysporum at 0.15 mg/mL after 72 hrs by agar diffusion technique; conditions: read-out: IZ
PARAMETER_MEASURED: zone of inhibition at 150 µg/mL (mm)

MOLECULE	OBSERVED_VALUE
Cc1cc(C)n2nc(Nc3ccccc3)c(C(=O)Nc3c(C)n(C)n(-c4ccccc4)c3=O)c2n1	25
Cc1cc(C)c2c(N/N=C(\C#N)C(=O)Nc3c(C)n(C)n(-c4ccccc4)c3=O)n[nH]c2n1	16
Cc1cc(O)n2nc(Nc3ccccc3)c(C(=O)Nc3c(C)n(C)n(-c4ccccc4)c3=O)c2n1	25
